measuredOn: Cholinesterase (Homo sapiens, UniProt P06276)
Sequence (P06276 whole entry): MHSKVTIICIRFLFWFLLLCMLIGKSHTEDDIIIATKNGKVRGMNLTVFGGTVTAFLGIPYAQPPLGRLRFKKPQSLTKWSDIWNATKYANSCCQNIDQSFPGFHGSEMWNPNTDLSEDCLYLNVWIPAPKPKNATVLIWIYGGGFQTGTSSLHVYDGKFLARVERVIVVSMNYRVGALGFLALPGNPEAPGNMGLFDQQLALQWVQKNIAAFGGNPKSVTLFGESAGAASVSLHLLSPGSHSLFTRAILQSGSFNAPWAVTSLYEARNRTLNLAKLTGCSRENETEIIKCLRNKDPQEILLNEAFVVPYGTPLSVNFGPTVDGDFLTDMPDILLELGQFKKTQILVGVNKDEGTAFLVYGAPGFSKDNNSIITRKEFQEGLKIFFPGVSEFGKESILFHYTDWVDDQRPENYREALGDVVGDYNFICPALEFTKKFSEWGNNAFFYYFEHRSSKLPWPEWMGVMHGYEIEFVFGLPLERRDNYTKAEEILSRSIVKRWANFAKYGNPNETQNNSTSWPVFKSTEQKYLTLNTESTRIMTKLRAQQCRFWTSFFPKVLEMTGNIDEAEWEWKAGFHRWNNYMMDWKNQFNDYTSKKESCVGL
assayExplanation: Inhibition of human recombinant BChE using acetylthiocholine iodide as substrate preincubated for 20 mins followed by substrate addition by DTNB reagent based Ellman's method
readoutLabel: pIC50
Keep it numeric: pIC50 is minus log10 of the concentration in mol/L.

Use the examples below as a reference point.
{"smilesNotation": "COc1ccc2sc3c([N+](=O)[O-])ccc(NCCC[C@@H]4CCCN5CCCC[C@H]45)c3c(=O)c2c1", "readoutLabel": "pIC50", "observed": 5.14}
{"smilesNotation": "Cc1ccc(NCCCSC[C@@H]2CCCN3CCCC[C@H]23)c2c(=O)c3ccccc3sc12", "readoutLabel": "pIC50", "observed": 8.15}
{"smilesNotation": "COc1ccc2sc3c([N+](=O)[O-])ccc(NCC[C@@H]4CCCN5CCCC[C@H]45)c3c(=O)c2c1", "readoutLabel": "pIC50", "observed": 5.74}
{"smilesNotation": "COc1ccc2sc3c(N)ccc(NCC[C@@H]4CCCN5CCCC[C@H]45)c3c(=O)c2c1", "readoutLabel": "pIC50", "observed": 6.00}
{"smilesNotation": "COc1ccc2sc3c(C)ccc(NCC[C@@H]4CCCN5CCCC[C@H]45)c3c(=O)c2c1", "readoutLabel": "pIC50", "observed": 6.15}

Given the compound "Cc1ccc(NCCC[C@@H]2CCCN3CCCC[C@H]23)c2c(=O)c3ccccc3oc12" , what is its reported pIC50? 6.52

Given the compound "Cc1ccc(NCC[C@@H]2CCCN3CCCC[C@H]23)c2c(=O)c3cc(O)ccc3sc12" , what is its reported pIC50? 6.05

----------
measuredOn: Acetylcholinesterase (Homo sapiens, UniProt P22303)
Sequence (P22303 whole entry): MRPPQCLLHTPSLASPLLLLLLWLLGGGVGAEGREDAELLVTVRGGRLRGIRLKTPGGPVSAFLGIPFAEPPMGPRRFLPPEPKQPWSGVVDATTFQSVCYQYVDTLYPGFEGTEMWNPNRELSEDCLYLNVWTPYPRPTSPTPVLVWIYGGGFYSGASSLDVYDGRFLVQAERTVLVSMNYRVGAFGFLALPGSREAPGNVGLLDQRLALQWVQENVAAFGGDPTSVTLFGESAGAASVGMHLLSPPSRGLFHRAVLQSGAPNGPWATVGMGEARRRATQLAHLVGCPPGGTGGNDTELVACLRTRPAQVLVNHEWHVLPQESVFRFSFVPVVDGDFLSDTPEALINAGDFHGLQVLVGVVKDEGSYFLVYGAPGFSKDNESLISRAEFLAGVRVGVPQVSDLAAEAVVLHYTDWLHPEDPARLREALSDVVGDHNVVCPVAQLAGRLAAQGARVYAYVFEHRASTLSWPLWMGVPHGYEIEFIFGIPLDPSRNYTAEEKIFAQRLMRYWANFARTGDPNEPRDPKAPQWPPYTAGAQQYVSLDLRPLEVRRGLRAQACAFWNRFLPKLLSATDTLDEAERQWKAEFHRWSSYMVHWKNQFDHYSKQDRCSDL
assayExplanation: Inhibition of human recombinant AChE using acetylthiocholine iodide as substrate preincubated for 20 mins followed by substrate addition by DTNB reagent based Ellman's method
# IC50 per record follows
Reply numerically in µM, unit not repeated.

Given the molecule "COc1ccc2sc3c(C)ccc(NCC[C@@H]4CCCN5CCCC[C@H]45)c3c(=O)c2c1" , what is its reported IC50? 3.59

Given the molecule "Cc1ccc(NCC[C@@H]2CCCN3CCCC[C@H]23)c2c(=O)c3cc(O)ccc3sc12" , what is its reported IC50? 4.26

Given the molecule "COc1ccc2sc3c([N+](=O)[O-])ccc(NCCC[C@@H]4CCCN5CCCC[C@H]45)c3c(=O)c2c1" , what is its reported IC50? 1.75

Given the molecule "COc1ccc2sc3c(N)ccc(NCC[C@@H]4CCCN5CCCC[C@H]45)c3c(=O)c2c1" , what is its reported IC50? 2.4

Given the molecule "Cc1ccc(NCCCSC[C@@H]2CCCN3CCCC[C@H]23)c2c(=O)c3ccccc3sc12" , what is its reported IC50? 7.84

Given the molecule "Cc1ccc(NCCC[C@@H]2CCCN3CCCC[C@H]23)c2c(=O)c3ccccc3oc12" , what is its reported IC50? 8.81

Given the molecule "COc1ccc2sc3c([N+](=O)[O-])ccc(NCC[C@@H]4CCCN5CCCC[C@H]45)c3c(=O)c2c1" , what is its reported IC50? 4.75

Given the molecule "COc1ccc2sc3c(C)ccc(NCCC4CCN(C)CC4)c3c(=O)c2c1" , what is its reported IC50? 16.1

----------
measuredOn: Acetylcholinesterase (Electrophorus electricus, UniProt O42275)
Sequence (O42275 whole entry): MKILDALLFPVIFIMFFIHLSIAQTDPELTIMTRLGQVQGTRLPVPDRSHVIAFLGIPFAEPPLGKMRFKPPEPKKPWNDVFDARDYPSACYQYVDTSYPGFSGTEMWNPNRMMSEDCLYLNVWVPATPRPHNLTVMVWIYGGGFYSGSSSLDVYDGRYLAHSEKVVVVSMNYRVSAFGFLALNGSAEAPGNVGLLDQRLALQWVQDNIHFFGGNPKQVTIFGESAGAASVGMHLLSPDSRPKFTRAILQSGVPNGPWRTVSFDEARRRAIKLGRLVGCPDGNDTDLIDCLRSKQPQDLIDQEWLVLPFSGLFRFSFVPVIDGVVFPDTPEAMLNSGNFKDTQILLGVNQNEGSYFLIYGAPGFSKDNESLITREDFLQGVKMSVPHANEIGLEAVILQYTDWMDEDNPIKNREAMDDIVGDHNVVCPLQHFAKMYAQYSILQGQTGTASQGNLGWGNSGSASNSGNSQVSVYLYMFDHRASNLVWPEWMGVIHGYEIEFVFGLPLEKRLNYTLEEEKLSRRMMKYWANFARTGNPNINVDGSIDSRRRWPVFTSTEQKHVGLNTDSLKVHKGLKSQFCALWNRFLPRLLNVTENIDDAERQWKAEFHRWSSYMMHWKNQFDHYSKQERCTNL
Hi! Just check whether IC50 is below 0.2 µM. Below gives class 1, equal or above gives class 0.

Use the examples below as a reference point.
{"smilesNotation": "COc1ccc2sc3c(N)ccc(NCC[C@@H]4CCCN5CCCC[C@H]45)c3c(=O)c2c1", "discreteLabel": "class 0"}
{"smilesNotation": "COc1ccc2sc3c([N+](=O)[O-])ccc(NCCC[C@@H]4CCCN5CCCC[C@H]45)c3c(=O)c2c1", "discreteLabel": "class 1"}
{"smilesNotation": "Cc1ccc(NCC[C@@H]2CCCN3CCCC[C@H]23)c2c(=O)c3cc(O)ccc3sc12", "discreteLabel": "class 0"}

Here's the next entry for you.
Is IC50 strictly under 0.2 µM for the entry "Cc1ccc(NCCC[C@@H]2CCCN3CCCC[C@H]23)c2c(=O)c3ccccc3oc12" ? class 1
